Value source: paper PMC4969713

Biological target: hERG potassium channel (Homo sapiens)
Sequence (Q12809 whole entry): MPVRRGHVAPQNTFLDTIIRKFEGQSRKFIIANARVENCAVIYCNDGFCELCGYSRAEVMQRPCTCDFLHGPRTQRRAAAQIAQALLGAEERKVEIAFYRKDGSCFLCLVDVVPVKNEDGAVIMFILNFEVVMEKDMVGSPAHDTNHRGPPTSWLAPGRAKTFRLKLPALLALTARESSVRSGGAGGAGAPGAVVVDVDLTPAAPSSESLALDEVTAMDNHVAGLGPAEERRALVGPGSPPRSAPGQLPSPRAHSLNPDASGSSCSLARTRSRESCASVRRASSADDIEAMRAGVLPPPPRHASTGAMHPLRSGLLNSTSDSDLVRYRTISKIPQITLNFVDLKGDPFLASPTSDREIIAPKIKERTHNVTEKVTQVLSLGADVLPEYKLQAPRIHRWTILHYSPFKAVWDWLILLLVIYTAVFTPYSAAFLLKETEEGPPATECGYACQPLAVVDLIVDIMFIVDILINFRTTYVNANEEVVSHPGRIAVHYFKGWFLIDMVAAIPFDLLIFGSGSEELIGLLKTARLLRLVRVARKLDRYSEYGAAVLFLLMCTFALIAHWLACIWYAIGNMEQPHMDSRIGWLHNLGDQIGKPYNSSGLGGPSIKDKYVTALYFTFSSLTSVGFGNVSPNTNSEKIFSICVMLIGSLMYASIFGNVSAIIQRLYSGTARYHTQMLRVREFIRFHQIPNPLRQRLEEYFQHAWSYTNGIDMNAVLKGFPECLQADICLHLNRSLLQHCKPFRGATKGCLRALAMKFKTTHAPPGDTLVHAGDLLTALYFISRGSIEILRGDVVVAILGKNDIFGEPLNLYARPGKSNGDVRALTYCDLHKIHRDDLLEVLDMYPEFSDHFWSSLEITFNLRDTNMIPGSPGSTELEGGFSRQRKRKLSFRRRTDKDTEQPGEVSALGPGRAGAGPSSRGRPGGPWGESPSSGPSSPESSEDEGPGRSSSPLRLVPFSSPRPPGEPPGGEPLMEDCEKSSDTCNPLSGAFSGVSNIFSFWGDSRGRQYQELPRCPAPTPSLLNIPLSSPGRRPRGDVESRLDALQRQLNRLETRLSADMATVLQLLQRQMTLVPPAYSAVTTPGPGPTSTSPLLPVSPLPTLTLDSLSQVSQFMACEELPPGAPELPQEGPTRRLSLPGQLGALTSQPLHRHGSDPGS
Experiment: hERG single cell patch clamp in HEK cells
Quantity name: IC50 (nM)
Give bare numbers, in nM.

get_value(item= Cc1ccc2c(c1)c1c(n2CCc2ccccc2)CCN(C)C1 [AVN-101] , readout=IC50) returns 580

---

Assay: Pharmacokinetics in Rhesus monkeys
Assay type: in vivo
Settings: rhesus monkey, in vivo, po, 10 mg/kg, AUC0 ⟶∞, Mean, PO 10 mg/kg
Quantity name: AUC (ng·h/mL)
Give bare numbers, in ng·h/mL.

get_value(item= `Cc1ccc2c(c1)c1c(n2CCc2ccccc2)CCN(C)C1` , readout=AUC) returns 606

---

Test: Pharmacokinetics in Wistar rats, IV/IP/PO
Assay type: in vivo
Conditions: Wistar, rat, plasma, ip, 5 mg/kg
Quantity name: Tmax (min)
Answers are plain numbers, in min.

get_value(item= Cc1ccc2c(c1)c1c(n2CCc2ccccc2)CCN(C)C1 [AVN-101] , readout=Tmax) returns 5
